experimental-protocol: survival after telomere uncapping, modulators, primary screen, cell-based (AID 1259312);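 also: virus expresses mutant telomerase RNA that uncaps telomeres and kills cells; compound added 2 days after infection so exposure lasts 3 days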
run-conditions: HCT116 + Ad-hTR-mut, MTT, 5 d; at 10 µM
Screen size: about 4,500 compounds; about 200 (4.4%) were called active.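 The calls were made as follows: active = cell survival measured by absorbance rises more than 2.5-fold over infected cells without compound; inactive = the rest.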 This is one part of a sample in which actives are shown more often than they occur.
Classes used: active, inactive

INSERT INTO assay_data (compound, assigned_category) VALUES
  ('CNS(=O)(=O)c1ccc(N)cc1', 'inactive'),
  ('O=c1c2ccc(Cl)c3c(Cl)ccc(c32)c2nc3ccccc3n12', 'inactive'),
  ('CS(=O)(=O)Nc1cccc(Cl)c1Cl', 'inactive'),
  ('Nc1ccc(Cn2ccnc2)cc1', 'inactive'),
  ('N#C/C(=C\c1ccc2c(c1)OCO2)c1ccccn1', 'inactive'),
  ('COc1cc(C(c2ccccc2)(c2ccccc2)c2ccccc2)cc2c1NC(C)(C)C=C2C', 'inactive'),
  ('O=C(O)CCc1cn(CCC(=O)O)cn1', 'active'),
  ('O=S(=O)(Nc1ccc(Cl)cn1)c1ccc(Br)cc1', 'inactive'),
  ('Cc1ccc2c(c1)c1c3n2CCN(c2nc(-c4ccc(Cl)cc4)cs2)C3CCC1 (stereo unspecified)', 'inactive'),
  ('Cc1cc2c(cc1C)-c1c(ssc1=Nc1ccc(S(N)(=O)=O)cc1)C(C)(C)N2', 'inactive'),
  ('CN1C(=O)C2(C(C#N)=C(N)Oc3c2c(=O)n(C)c(=O)n3C)c2ccccc21 (stereo unspecified)', 'inactive'),
  ('CC(C)(C)c1ccc(C(N2CCCCC2)P(=O)(c2ccccc2)N2CCCCC2)cc1 (stereo unspecified)', 'inactive'),
  ('COc1cc(C2C(C#N)=C(N)Nc3oc(C)nc32)cc(OC)c1OC (stereo unspecified)', 'inactive'),
  ('COCCCNS(=O)(=O)c1cc(Cl)ccc1Cl', 'inactive'),
  ('CC1NC(=O)N(C(C)(C)C)C(=O)C1Cl (stereo unspecified)', 'active'),
  ('O=S(=O)(Nc1cccnc1)c1cc(Cl)ccc1Cl', 'inactive'),
  ('N#Cc1sc2nc(-c3cccs3)ccc2c1N', 'active'),
  ('Nc1nnc(SCc2ccc(Cl)cc2)s1', 'inactive'),
  ('c1csc(-c2nc3sc(-c4cccs4)nc3s2)c1', 'inactive'),
  ('c1ccc(N/N=C2/C/C(=N\Nc3ccccc3)c3ccccc32)cc1', 'inactive'),
  ('N#C/C(=C/c1ccncc1)C(N)=S', 'inactive'),
  ('Clc1nc2ccccc2nc1-c1ccccc1', 'inactive'),
  ('Cc1[nH]nc2c1C1(C(=O)Nc3ccccc31)C(C#N)=C(N)O2 (stereo unspecified)', 'active'),
  ('CC12CC3CC(C)(C1)CC(CC(=O)N1CCN(S(C)(=O)=O)CC1)(C3)C2', 'inactive'),
  ('N#CC1=C(N)n2c(s/c(=C\c3ccc(O)cc3)c2=O)=C(C#N)C1c1ccc(O)cc1 (stereo unspecified)', 'inactive'),
  ('Brc1ccc(-c2csc(N3CCOCC3)n2)cc1', 'inactive'),
  ('N=C(N)SCc1ccc(Cl)cc1', 'active'),
  ('CS(=O)(=O)NCCNC(=O)c1nonc1N', 'inactive'),
  ('CCCNS(=O)(=O)c1cc(Cl)ccc1Cl', 'inactive'),
  ('O=S(=O)(NCc1cccnc1)c1cccs1', 'inactive'),
  ('O=C(O)CNC(=O)c1cccs1', 'inactive'),
  ('Fc1ccc(CSc2nnc(SCc3ccccc3F)s2)cc1', 'inactive'),
  ('c1ccc(-c2nonc2N=Nc2nonc2-c2ccccc2)cc1', 'inactive'),
  ('Cc1[nH]nc2c1C1(CCCCC1)C(C#N)=C(N)O2', 'inactive'),
  ('CN(C)c1ccc(N2CC(=O)SC2=NC#N)cc1', 'inactive'),
  ('CC12CC3CC(C)(C1)CC(CC(=O)NCC14CC5CC(CC(C5)C1)C4)(C3)C2', 'active');
